- System: Strain WW2 whole cells
- protocol: Whole cell oxygen uptake with indole and related substrates (Clark electrode oxygraph)
- Type: cell-based, Pseudomonas putida
- assay-conditions: substrate 0.6 mM; whole cells 4.5 h after indole induction; corrected for uptake without substrate
Please use label 1 for Oxygen Uptake under 6 O2 %/min/ODU and label 0 for everything else, ties included.

c1ccc2sccc2c1: label 1
c1ccc2[nH]ccc2c1: label 0

// next entry
In: Would you kindly verify if Oxygen Uptake of Oc1c[nH]c2ccccc12 [Indoxyl, 3-hydroxyindole] is strictly less than 6 O2 %/min/ODU?
Out: label 0

###

- Test system: indole oxidase
- protocol: Cell-free oxygen uptake in WW2 indole-induced cell extract
- Assay type: biochemical, Pseudomonas putida
- assay-conditions: substrate 0.3 mM; indole = 100%
Documented Relative % (oxygen uptake rate) across a set of compounds
// units = %; emit number, no label

c1ccc2[nH]ccc2c1: 100
Cc1c[nH]c2ccccc12: 14

In: # lookup: Relative % (oxygen uptake rate) of "Cc1cccc2cc[nH]c12"
Out: 86

In: Would you kindly share the measured Relative % (oxygen uptake rate) for "Clc1ccc2[nH]ccc2c1" ?
Out: 28

In: Need Relative % (oxygen uptake rate) of "Cc1cccc2[nH]ccc12" , thanks.
Out: 7

In: Value lookup for Relative % (oxygen uptake rate); key = "Brc1ccc2[nH]ccc2c1"
Out: 0

In: Entry "c1ccc2occc2c1" has what Relative % (oxygen uptake rate)?
Out: 0

In: Any idea what its Relative % (oxygen uptake rate) is? The compound is "O=[N+]([O-])c1ccc2[nH]ccc2c1"
Out: 0
